System: KP-3 (Pancreatic Carcinoma)
Assay: combination Emax (second highest fraction inhibited in the dose matrix, 72 h); higher = more inhibition; extreme values may be limits of the assay
REPORTED_PROPERTY: combination Emax
Quick one: just the number, no unit, thanks!

Need combination Emax, item COc1nnc2ccc(N3CCC(c4ccc(OCCN5CCN(C)C(=O)[C@H]5C)cc4)CC3)nn12 [AZD5153] + Cc1c2c(nn1C)CSCc1cc(n(C)n1)CSc1cc(c3ccccc3c1)OCCCc1c(C(=O)O)n(C)c3c-2c(Cl)ccc13 [AZD5991] (first compound max 1 µM, 7x7, partner max 1 µM) 0.275

Same for CS(=O)(=O)CCNCc1ccc(-c2ccc3ncnc(Nc4ccc(OCc5cccc(F)c5)c(Cl)c4)c3c2)o1 [Lapatinib] + NC1(c2ccc(-c3nc4ccn5c(=O)[nH]nc5c4cc3-c3ccccc3)cc2)CCC1 [MK-2206] (first compound max 10 µM, 7x7, partner max 10 µM) 0.205

* * *

Tested on: 8505C (Thyroid Gland Carcinoma)
Assay: combination Emax (second highest fraction inhibited in the dose matrix, 72 h); higher = more inhibition; extreme values may be limits of the assay
Quick reference: combination Emax of the listed items.
Number only, please.

| COMPOUND | TEST_SYSTEM | combination Emax |
| --- | --- | --- |
| CN(C)CCCOc1ccc(-c2ccc3ncc4c(c3c2)n(C2CCOCC2)c(=O)n4C)cn1 [AZD0156] + C[C@@H]1COCCN1C2=NC(=NC(=C2)C3(CC3)[S@](=N)(=O)C)C4=C5C=CNC5=NC=C4 [AZD6738] (first compound max 1 µM, 7x7, partner max 10 µM) | 8505C (Thyroid Gland Carcinoma) | 0.24 |

Pending compound:
Hello, I am looking for reported combination Emax with 8505C (Thyroid Gland Carcinoma) for CC1(C)CCC(CN2CCN(c3ccc(C(=O)NS(=O)(=O)c4ccc(NCC5CCOCC5)c([N+](=O)[O-])c4)c(Oc4cnc5[nH]ccc5c4)c3)CC2)=C(c2ccc(Cl)cc2)C1 [Venetoclax] + Cc1cc2ncnn2cc1Nc1ncc2c(n1)n(C1CCOCC1)c(=O)n2C [AZD7648] (first compound max 1 µM, 7x7, partner max 10 µM) . Could you help? 0.187

* * *

combination Emax listing for selected molecules.
System: COR-L279 (Small Cell Lung Carcinoma)
Assay: combination Emax (second highest fraction inhibited in the dose matrix, 72 h); higher = more inhibition; extreme values may be limits of the assay
Give the figure by itself; no unit, no explanation.

For the molecule CN(C)CCCOc1ccc(-c2ccc3ncc4c(c3c2)n(C2CCOCC2)c(=O)n4C)cn1 [AZD0156] + O=C(c1cc(Cc2n[nH]c(=O)c3ccccc23)ccc1F)N1CCN(C(=O)C2CC2)CC1 [Olaparib] (first compound max 3 µM, partner max 3 µM) , what combination Emax is on record? 0.692

Another molecule: COc1nnc2ccc(N3CCC(c4ccc(OCCN5CCN(C)C(=O)[C@H]5C)cc4)CC3)nn12 [AZD5153] + CC1(C)CCC(CN2CCN(c3ccc(C(=O)NS(=O)(=O)c4ccc(NCC5CCOCC5)c([N+](=O)[O-])c4)c(Oc4cnc5[nH]ccc5c4)c3)CC2)=C(c2ccc(Cl)cc2)C1 [Venetoclax] (first compound max 1 µM, 7x7, partner max 1 µM) 0.663

* * *

System: G-361 (Melanoma)
Assay: combination Emax (second highest fraction inhibited in the dose matrix, 72 h); higher = more inhibition; extreme values may be limits of the assay
Outcome: y for combination Emax of at least 0.5; n for anything lower.

Observe how each entry below is paired with its result.
| COMPOUND | GROUP |
| --- | --- |
| CC(=O)c1c(C)c2cnc(Nc3ccc(N4CCNCC4)cn3)nc2n(C2CCCC2)c1=O [Palbociclib] + Cc1c2c(nn1C)CSCc1cc(n(C)n1)CSc1cc(c3ccccc3c1)OCCCc1c(C(=O)O)n(C)c3c-2c(Cl)ccc13 [AZD5991] (first compound max 10 µM, 7x7, partner max 1 µM) | y |
| COc1nnc2ccc(N3CCC(c4ccc(OCCN5CCN(C)C(=O)[C@H]5C)cc4)CC3)nn12 [AZD5153] + CCN(CCO)CCCOc1ccc2c(Nc3cc(CC(=O)Nc4cccc(F)c4)[nH]n3)ncnc2c1 [AZD2811] (first compound max 1 µM, 7x7, partner max 1 µM) | y |
| COc1cc2ncnc(Nc3ccc(F)c(Cl)c3)c2cc1OCCCN1CCOCC1 [Gefitinib] + CC(C)n1c(=O)n(C)c2cnc3cc(F)c(-c4ccc(OCCCN5CCCCC5)nc4)cc3c21 [AZD1390] (first compound max 10 µM, 7x7, partner max 0.3 µM) | y |
| CCN(CCO)CCCOc1ccc2c(Nc3cc(CC(=O)Nc4cccc(F)c4)[nH]n3)ncnc2c1 [AZD2811] + C[C@@H]1COCCN1C2=NC(=NC(=C2)C3(CC3)[S@](=N)(=O)C)C4=C5C=CNC5=NC=C4 [AZD6738] (first compound max 1 µM, 7x7, partner max 10 µM) | n |
| NC1(C(=O)N[C@@H](CCO)c2ccc(Cl)cc2)CCN(c2ncnc3[nH]ccc23)CC1 [Capivasertib] + COc1nnc2ccc(N3CCC(c4ccc(OCCN5CCN(C)C(=O)[C@H]5C)cc4)CC3)nn12 [AZD5153] (first compound max 10 µM, 7x7, partner max 1 µM) | y |
| Cc1cc2ncnn2cc1Nc1ncc2c(n1)n(C1CCOCC1)c(=O)n2C [AZD7648] + O=C(c1cc(Cc2n[nH]c(=O)c3ccccc23)ccc1F)N1CCN(C(=O)C2CC2)CC1 [Olaparib] (first compound max 10 µM, 7x7, partner max 10 µM) | n |
| CN(CCO)CC[C@H](CSc1ccccc1)Nc1ccc(S(=O)(=O)NC(=O)c2ccc(N3CCC([C@@H](O)c4ccccc4-c4ccc(Cl)cc4)CC3)cc2)cc1S(=O)(=O)C(F)(F)F [AZD4320] + C[C@@H]1COCCN1C2=NC(=NC(=C2)C3(CC3)[S@](=N)(=O)C)C4=C5C=CNC5=NC=C4 [AZD6738] (first compound max 1 µM, 7x7, partner max 10 µM) | y |

Is combination Emax for C[C@@H]1COCCN1c1cc(C2([S@](C)(=N)=O)CC2)nc(-c2ccnc3[nH]ccc23)n1 [AZD6738] + O=C(c1cc(Cc2n[nH]c(=O)c3ccccc23)ccc1F)N1CCN(C(=O)C2CC2)CC1 [Olaparib] (first compound max 10 µM, 7x7, partner max 10 µM) at or above 0.5? n
